experiment: in vivo; details: male, Sprague Dawley, rat, po, 100 mg/kg, MRT(0-t)
Value Type: MRT last

## Input Given the entry C[C@@H]1CC[C@H]2[C@@H](C)C(=O)O[C@@H]3O[C@@]4(C)CC[C@@H]1[C@]32OO4 [ART, Artemisinin, reference compound] , report its measured MRT last.
## Output 1.18 h

====

test: in vivo; conditions: male, Sprague Dawley, rat, po, 352 mg/kg, MRT(0-t)
Value Type: MRT last (h)
All answers are understood in h, so give the number only.

## Input Given the entry "C[C@@H]1CC[C@H]2[C@@H](C)C(=O)O[C@@H]3O[C@@]4(C)CC[C@@H]1[C@]32O4" , report its measured MRT last.
## Output 4.04

## Input Given the entry "C=C1CC[C@@H]2[C@H]3[C@@H](CC[C@H]2C)[C@@H](C)C(=O)O[C@H]13" , report its measured MRT last.
## Output 4.34

## Input Given the entry C[C@@H]1CC[C@H]2[C@@H](C)C(=O)O[C@@H]3O[C@@]4(C)CC[C@@H]1[C@]32OO4 [ART, Artemisinin, reference compound] , report its measured MRT last.
## Output 1.71
